Source of measurements: patent US5276217A

- EXPERIMENTAL SYSTEM: ras farnesyl transferase (Bos taurus, UniProt P29702+P49355)
- Construct: ras farnesyl transferase obtained from bovine brain
- ASSAY METHOD TEXT: inhibition of the farnesylation of ras-p21 by ras farnesyl transferase (3H-farnesylpyrophosphate incorporation)
- CONDITION SUMMARY: 37° C., 20 minutes, pH 7.5, 0.67 μM 3H-Farnesylpyrophosphate, 4 μg ras-p21
- Protocol: This inhibitory activity is assayed using partially purified ras farnesyl transferase obtained from bovine brain by DEA gel filtration (J. Biol. Chem., 260, 15575, 1991) purified to display a single band in gel electrophoresis. […] This mixture is incubated at 37° C. for 20 minutes. The solutes are then precipitated with trichloroacetic acid (TCA) and the precipitate is filtered on a glass filter. The amount of farnesyl incorporated into the ras-p21 is then determined by liquid scintillation.
METRIC: IC50

Quickly give me recorded IC50 for CC1=CC=C(C(C)C)C(O)CC(C)=CCCC(C)=CCC1 (stereo not shown) [Sarcophytol A]
> 1 mM
